# credit: patent US20240217966A1

target under test: Human GLP-1 receptor (Homo sapiens)
Construct: expressed in transfected cells
assay overview: Measurement of GLP-1 receptor agonist activity (cAMP assay)
Format: cell-based
measurement context: CHO-K1, hGLP-1R/CHO-K1 cells, cAMP; 100% = human GLP-1 (7-36) at 2 nM, 0% = DMSO only; read-out: Emax(%)
assay endpoint: Emax (%)

* C[C@H]1c2cc(OCc3ccc(C(F)F)cc3F)c(C(F)(F)F)cc2CCN1Cc1nc2ccc(C(=O)O)cc2n1C[C@@H]1CCO1 | 106
* C[C@H]1c2cc(OCc3ccc(C#N)cc3)c(C(F)(F)F)cc2CCN1Cc1nc2ccc(C(=O)O)c(F)c2n1C[C@@H]1CCO1 | 124
* O=C(O)c1ccc2nc(Cc3ccc4nc(C(F)(F)F)c(OCc5ccc(Cl)cc5F)nc4c3F)n(C[C@@H]3CCO3)c2c1 | 114
* Cn1nnc2cc(COc3cc4c(cc3C(F)(F)F)CCN(Cc3nc5ccc(C(=O)O)cc5n3C[C@@H]3CCO3)C4)ccc21 | 127
* COc1ccc(COc2cc3c(cc2C(F)(F)F)CCN(Cc2nc4ccc(C(=O)O)cc4n2C[C@@H]2CCO2)C3)cc1 | 102
* CS(=O)(=O)c1ccc(COc2cc3c(cc2C(F)(F)F)CCN(Cc2nc4ccc(C(=O)O)cc4n2C[C@@H]2CCO2)C3)cc1 | 106
* CC(C)n1ccc(COc2cc3c(cc2C(F)(F)F)CCN(Cc2nc4ccc(C(=O)O)cc4n2C[C@@H]2CCO2)C3)n1 | 93.7
* O=C(O)c1cc2c(cc1F)nc(CN1CCc3cc(C(F)(F)F)c(OCc4ccc(Cl)cc4F)cc3C1)n2C[C@@H]1CCO1 | 103

* * *

target under test: Human GLP-1 receptor (Homo sapiens)
Construct: expressed in transfected cells
assay overview: Measurement of GLP-1 receptor agonist activity (cAMP assay)
Type: cell-based
measurement context: cAMP increase in GLP-1 R/CHO-K1 cells; 2 nM human GLP-1 (7-36) = 100%, DMSO only = 0%
assay endpoint: EC50 (nM)

Use the examples below as a reference point.
* C[C@H]1c2nc(OCc3ccc(Cl)cc3Cl)c(C(F)(F)F)cc2CCN1Cc1nc2c(F)cc(C(=O)O)cc2n1C[C@@H]1CCO1 [Compound I-244] | 0.0394
* C[C@H]1c2nc(OCc3ccccc3Cl)c(C(F)(F)F)cc2CCN1Cc1nc2ccc(C(=O)O)nc2n1C[C@@H]1CCO1 [Compound I-287] | 0.103
* C[C@H]1c2nc(OCc3ccc(C#N)cc3F)c(C(F)(F)F)cc2CCN1Cc1nc2ccc(C(=O)O)c(F)c2n1C[C@@H]1CCO1 [Compound I-240] | 0.0648
* O=C(O)c1ccc2nc(CN3CCc4cc(C(F)(F)F)c(OCc5c(F)cc(F)cc5F)nc4C3)n(C[C@@H]3CCO3)c2c1 [Compound I-280] | 0.79
* Cc1ccc(COc2cc3c(cc2Cl)CCN(Cc2nc4ccc(C(=O)O)nc4n2C[C@@H]2CCO2)[C@H]3C)cc1 [Compound I-313] | 7.87

a. COc1cc(C(=O)O)cc2c1nc(CN1CCc3cc(C(F)(F)F)c(OCc4ccc(F)cc4F)cc3[C@@H]1C)n2C[C@@H]1CCO1 [Compound I-231]
b. COc1cc(C(=O)O)cc2c1nc(CN1CCc3cc(C(F)(F)F)c(OCc4ccc(Cl)cc4)nc3[C@@H]1C)n2C[C@@H]1CCO1 [Compound I-374]
c. C[C@H]1c2cc(OCc3cc(F)c(Cl)cc3F)c(Cl)cc2CCN1Cc1nc2c(F)cc(C(=O)O)cc2n1C[C@@H]1CCO1 [Compound I-338]
IN: Ascending by EC50, please: list the compounds accordingly. Give the labels in the order specified.
OUT: b, a, c

I. COc1cc(C(=O)O)cc2c1nc(CN1CCc3cc(C(F)(F)F)c(OCc4ccc(Cl)cc4Cl)cc3[C@@H]1C)n2C[C@@H]1CCO1 [Compound I-232]
II. COc1cc(C(=O)O)cc2c1nc(CN1CCc3cc(Cl)c(OCc4ccc(C5CC5)cc4)cc3[C@@H]1C)n2C[C@@H]1CCO1 [Compound I-342]
III. COc1cc(C(=O)O)cc2c1nc(CN1CCc3cc(C(F)(F)F)c(OCc4ccc(Cl)cc4)nc3C1)n2C[C@@H]1CCO1 [Compound I-386]
IN: Please rank these compounds by EC50 in descending order. Give the labels in the order specified.
OUT: II, I, III
(II: 1.95 nM, I: 0.223 nM, III: 0.0877 nM)

P. C[C@H]1c2nc(OCc3cc(F)c(Cl)cc3F)c(C(F)(F)F)cc2CCN1Cc1nc2c(F)cc(C(=O)O)cc2n1C[C@@H]1CCO1 [Compound I-246]
Q. C[C@H]1c2nc(OCc3c(F)cc(Cl)cc3F)c(C(F)(F)F)cc2CCN1Cc1nc2ccc(C(=O)O)c(F)c2n1C[C@@H]1CCO1 [Compound I-362]
R. COc1cc(C(=O)O)cc2c1nc(CN1CCc3cc(C(F)(F)F)c(OCc4ccc(C)cc4)cc3[C@@H]1C)n2C[C@@H]1CCO1 [Compound I-227]
IN: Ascending by EC50, please: list the compounds accordingly. Give the labels in the order specified.
OUT: P, Q, R
(P: 0.0264 nM, Q: 0.0408 nM, R: 0.3 nM)

* * *

target under test: Human GLP-1 receptor (Homo sapiens, UniProt P43220)
Construct: expressed in transfected cells
Sequence (P43220 24-463): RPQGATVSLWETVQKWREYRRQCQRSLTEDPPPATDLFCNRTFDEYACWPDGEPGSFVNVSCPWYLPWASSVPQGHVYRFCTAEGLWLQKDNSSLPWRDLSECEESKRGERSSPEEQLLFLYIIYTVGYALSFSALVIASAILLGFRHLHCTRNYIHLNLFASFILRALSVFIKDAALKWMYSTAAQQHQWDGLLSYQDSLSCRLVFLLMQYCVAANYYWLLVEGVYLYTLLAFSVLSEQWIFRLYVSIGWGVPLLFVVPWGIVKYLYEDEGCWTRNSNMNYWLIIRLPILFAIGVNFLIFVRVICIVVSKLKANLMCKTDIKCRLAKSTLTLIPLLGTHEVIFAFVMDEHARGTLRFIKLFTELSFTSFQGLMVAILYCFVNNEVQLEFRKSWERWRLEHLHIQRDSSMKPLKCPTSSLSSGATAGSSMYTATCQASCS
assay overview: Measurement of GLP-1 receptor agonist activity (cAMP assay)
Assay type: cell-based
measurement context: hGLP-1R/CHO-K1 cells, cAMP increase, 37° C. 1 hour
Experimental: Test Example 1: (Measurement of GLP-1 Receptor Agonist Activity) Human GLP-1 receptor stably expressing cells (hGLP-1R/CHO-K1 cells) are cultured in an α-MEM medium (Sigma) containing 10% FBS (Hyclone), 2% GlutaMAX (Gibco), 1% G418 (Nacalai Tesque), and 1% Penicillin-Streptomycin Mixed Solution (Sigma) at 37° C. under 5% CO2 conditions, and recovered by treating a 10 fold diluted 5.0 g/l-trypsin/5.3 mmol/l-EDTA solution (Nacalai Tesque) and cryopreserved. […]
assay endpoint: EC50 (nM)

Use the examples below as a reference point.
- C[C@H]1c2cc(OCc3ccc(F)cc3)c(C(F)(F)F)cc2CCN1Cc1nc2ccc(C(=O)O)nc2n1C[C@@H]1CCO1: 4.2
- C[C@H]1c2nc(OCc3ccc(Cl)cc3F)c(C(F)(F)F)cc2CCN1Cc1nc2ccc(C(=O)O)c(F)c2n1C[C@@H]1CCO1: 0.0524
- COCCn1c(CN2CCc3cc(C(F)(F)F)c(OCc4ccc(Cl)cc4F)cc3C2)nc2ccc(C(=O)O)cc21: 81.5
- O=C(O)c1ccc2nc(CN3CCc4cc(C(F)(F)F)c(OCc5ccc(Cl)cc5F)cc4C3)n(Cc3ncco3)c2c1: 24.5

1. O=C(O)c1ccc2nc(CN3CCc4cc(C(F)(F)F)c(OCc5ccc(Cl)cc5F)cc4C3)n(Cc3cccnc3)c2c1
2. O=C(O)c1ccc2nc(CN3CCc4cc(C(F)(F)F)c(OCc5cc(F)c(F)cc5F)cc4C3)n(C[C@@H]3CCO3)c2c1
3. C[C@H]1c2cc(OCc3ccc(C#N)cc3)c(C(F)(F)F)cc2CCN1Cc1nc2ccc(C(=O)O)cc2n1C[C@@H]1CCO1
4. O=C(O)c1ccc2nc(Cc3ccc4nc(C(F)(F)F)c(OCc5ccc(Cl)cc5F)nc4c3F)n(C[C@@H]3CCO3)c2c1
IN: Please rank these compounds by EC50 in descending order. Give the labels in the order specified.
OUT: 1, 2, 3, 4

* * *

target under test: Human GLP-1 receptor (Homo sapiens, UniProt P43220)
Construct: expressed in transfected cells
assay overview: Measurement of GLP-1 receptor agonist activity (cAMP assay)
Type: cell-based
measurement context: cAMP increase in GLP-1 R/CHO-K1 cells; 2 nM human GLP-1 (7-36) = 100%, DMSO only = 0%
assay endpoint: EC50 (nM)

• COc1cc(C(=O)O)cc2c1nc(CN1CCc3cc(C(F)(F)F)c(OCc4ccc(Cl)cc4)cc3[C@@H]1C)n2C[C@@H]1CCO1 = 0.628
• C[C@H]1c2cc(OCc3ccc(Cl)cc3Cl)c(Cl)cc2CCN1Cc1nc2ccc(C(=O)O)c(F)c2n1C[C@@H]1CCO1 = 0.655
• C[C@H]1c2cc(OCc3ccc(F)cc3F)c(Cl)cc2CCN1Cc1nc2ccc(C(=O)O)c(F)c2n1C[C@@H]1CCO1 = 1.7
• C[C@H]1c2cc(OCc3ccc(OC(F)F)cc3F)c(Cl)cc2CCN1Cc1nc2ccc(C(=O)O)c(F)c2n1C[C@@H]1CCO1 = 1.06

P. COc1cc(C(=O)O)cc2c1nc(CN1CCc3cc(C(F)(F)F)c(OCc4ccccc4Cl)cc3[C@@H]1C)n2C[C@@H]1CCO1
Q. C[C@H]1c2cc(OCc3ccc(Cl)cc3Cl)c(Cl)cc2CCN1Cc1nc2ccc(C(=O)O)nc2n1C[C@@H]1CCO1
IN: # query: argmin of EC50 over P and Q Use the label to indicate which entry you chose.
OUT: P
